Tested on: HEK293
Assay: Inhibition of mouse GAT4 expressed in HEK cells assessed as remaining [3H]-GABA uptake at 100 uM after 25 mins by liquid scintillation counting analysis relative to control
Type: cell-based
Listing of recorded Activity by entry.
A number alone suffices; assume %.

Would you please look over these solved cases?
COMPOUND: O=C(c1cccc(F)c1)c1cc(F)ccc1/C=C\OCCN1CCCC(C(=O)O)C1 (centres undefined)
MEASUREMENT UNITS: %
Activity: 45.2
--
COMPOUND: O=C(c1ccc(F)cc1)c1cc(F)ccc1/C=C/OCCN1CCCC(C(=O)O)C1 (centres undefined)
MEASUREMENT UNITS: %
Activity: 72.7
--
COMPOUND: O=C(O)C1CCCN(CCO/C=C/c2cc(F)ccc2Cc2ccccc2F)C1 (centres undefined)
MEASUREMENT UNITS: %
Activity: 53.8
--
COMPOUND: O=C(O)C1CCCN(CCO/C=C\c2cc(F)ccc2Cc2ccc(F)cc2)C1 (centres undefined)
MEASUREMENT UNITS: %
Activity: 50.3
--
COMPOUND: O=C(O)C1CCCN(CCO/C=C\c2ccccc2Cc2ccccc2)C1 (centres undefined)
MEASUREMENT UNITS: %
Activity: 66
--
COMPOUND: O=C(c1ccccc1)c1ccccc1/C=C/OCCN1CCCC(C(=O)O)C1 (centres undefined)
MEASUREMENT UNITS: %
Activity: 79.8
--
COMPOUND: O=C(O)C1CCCN(CCO/C=C/c2cc(F)ccc2Cc2cccc(F)c2)C1 (centres undefined)
MEASUREMENT UNITS: %
Activity: 51.8
--
COMPOUND: O=C(O)C1CCCN(CCO/C=C/c2ccc(F)cc2Cc2ccc(F)cc2)C1 (centres undefined)
MEASUREMENT UNITS: %
Activity: 63.7

Exam item: Notebook: pull reported Activity for HEK293, entry O=C(c1cccc(F)c1)c1cc(F)ccc1/C=C/OCCN1CCCC(C(=O)O)C1 (centres undefined)
Marked response: 67.6

Exam item: Find the measured Activity: item O=C(c1ccccc1F)c1cc(F)ccc1/C=C\OCCN1CCCC(C(=O)O)C1 (centres undefined) , target or system HEK293.
Marked response: 45.1

Exam item: Give Activity (HEK293) of the following compound: O=C(c1ccc(F)cc1)c1cc(F)ccc1/C=C\OCCN1CCCC(C(=O)O)C1 (centres undefined)
Marked response: 44.8

====

Tested on: Betaine/GABA transporter BGT1 (mGAT2, slc6a12, Mus musculus)
Assay: Inhibition of mouse GAT2 expressed in HEK cells assessed as remaining [3H]-GABA uptake at 100 uM after 25 mins by liquid scintillation counting analysis relative to control
Settings: HEK293
REPORTED ENDPOINT: Activity (%)
Value expressed in %; do not type the unit.

COMPOUND: O=C(c1ccccc1F)c1ccc(F)cc1/C=C/OCCN1CCCC(C(=O)O)C1 (configuration not stated)
MEASURED ON: Betaine/GABA transporter BGT1 (mGAT2, slc6a12, Mus musculus)
REPORTED ENDPOINT: Activity
RECORDED MEASUREMENT: 68.6
--
COMPOUND: O=C(c1ccccc1)c1ccccc1/C=C\OCCN1CCCC(C(=O)O)C1 (configuration not stated)
MEASURED ON: Betaine/GABA transporter BGT1 (mGAT2, slc6a12, Mus musculus)
REPORTED ENDPOINT: Activity
RECORDED MEASUREMENT: 72.3
--
COMPOUND: O=C(c1ccc(F)cc1)c1cc(F)ccc1/C=C\OCCN1CCCC(C(=O)O)C1 (configuration not stated)
MEASURED ON: Betaine/GABA transporter BGT1 (mGAT2, slc6a12, Mus musculus)
REPORTED ENDPOINT: Activity
RECORDED MEASUREMENT: 73
--
COMPOUND: O=C(c1ccc(F)cc1)c1ccc(F)cc1/C=C\OCCN1CCCC(C(=O)O)C1 (configuration not stated)
MEASURED ON: Betaine/GABA transporter BGT1 (mGAT2, slc6a12, Mus musculus)
REPORTED ENDPOINT: Activity
RECORDED MEASUREMENT: 70.2
--
COMPOUND: O=C(c1cccc(F)c1)c1cc(F)ccc1/C=C/OCCN1CCCC(C(=O)O)C1 (configuration not stated)
MEASURED ON: Betaine/GABA transporter BGT1 (mGAT2, slc6a12, Mus musculus)
REPORTED ENDPOINT: Activity
RECORDED MEASUREMENT: 62.9

Exam item: May I ask what Activity has been recorded for O=C(O)C1CCCN(CCO/C=C\c2ccc(F)cc2Cc2ccc(F)cc2)C1 (configuration not stated) ?
Marked response: 64.8

Exam item: Give the measured Activity of O=C(c1ccc(F)cc1)c1cc(F)ccc1/C=C/OCCN1CCCC(C(=O)O)C1 (configuration not stated) .
Marked response: 71.4

Exam item: What value of measured Activity is listed for O=C(c1cccc(F)c1)c1ccc(F)cc1/C=C\OCCN1CCCC(C(=O)O)C1 (configuration not stated) ?
Marked response: 96.1

Exam item: May I ask what Activity has been recorded for O=C(O)C1CCCN(CCO/C=C/c2cc(F)ccc2Cc2cccc(F)c2)C1 (configuration not stated) ?
Marked response: 70.5

Exam item: # Activity lookup, item O=C(O)C1CCCN(CCO/C=C/c2ccccc2Cc2ccccc2)C1 (configuration not stated)
Marked response: 60.2

Exam item: Item under review: O=C(c1ccc(F)cc1)c1ccc(F)cc1/C=C/OCCN1CCCC(C(=O)O)C1 (configuration not stated) . Reported Activity?
Marked response: 61.2

Exam item: Which Activity is listed for O=C(O)C1CCCN(CCO/C=C/c2ccc(F)cc2Cc2ccccc2F)C1 (configuration not stated) ?
Marked response: 57.5

Exam item: Entry O=C(O)C1CCCN(CCO/C=C\c2cc(F)ccc2Cc2ccccc2F)C1 (configuration not stated) has what Activity?
Marked response: 71.1

Exam item: Item O=C(O)C1CCCN(CCO/C=C\c2ccccc2Cc2ccccc2)C1 (configuration not stated) has what recorded Activity?
Marked response: 68.6

Exam item: Request the reported Activity associated with O=C(c1ccccc1F)c1ccc(F)cc1/C=C\OCCN1CCCC(C(=O)O)C1 (configuration not stated)
Marked response: 74.5

Exam item: Which value of Activity has been reported for O=C(c1cccc(F)c1)c1cc(F)ccc1/C=C\OCCN1CCCC(C(=O)O)C1 (configuration not stated) in the records?
Marked response: 56.9

Exam item: // query Activity value for entry O=C(O)C1CCCN(CCO/C=C/c2cc(F)ccc2Cc2ccc(F)cc2)C1 (configuration not stated)
Marked response: 58.1

Exam item: Report Activity for O=C(O)C1CCCN(CCO/C=C\c2ccc(F)cc2Cc2ccccc2F)C1 (configuration not stated) please.
Marked response: 80.1

Exam item: Requested field: Activity. Item: O=C(c1ccccc1)c1ccccc1/C=C/OCCN1CCCC(C(=O)O)C1 (configuration not stated)
Marked response: 67.5

Exam item: Record request: Activity value, item O=C(O)C1CCCN(CCO/C=C/c2ccc(F)cc2Cc2ccc(F)cc2)C1 (configuration not stated)
Marked response: 71.6

Exam item: Quick one: Activity for O=C(O)C1CCCN(CCO/C=C\c2cc(F)ccc2Cc2cccc(F)c2)C1 (configuration not stated) ?
Marked response: 60.3

Exam item: Data request, read-out Activity, for O=C(O)C1CCCN(CCO/C=C/c2cc(F)ccc2Cc2ccccc2F)C1 (configuration not stated)
Marked response: 47.8

Data origin, for the record: ChEMBL document CHEMBL2385039
